target: Bromodomain-containing protein 4 (Homo sapiens); test: Inhibition of TEV cleavage site-fused-GST tagged BRD4(BD1) (unknown origin) using SGRGK(Ac)CGK(Ac)-GLGK(Ac)GGAK(Ac)RHRKVG-peptide after 3 hrs by HTRF assay
quantity.name: pIC50
pIC50 is a log-scale quantity: -log10 of the concentration expressed in molar.

What value of measured pIC50 is listed for CCn1cnc2c1c(=O)[nH]c(=O)n2Cc1ccc(CNS(=O)(=O)c2ccc3c(c2)CCCC(=O)N3)cc1 ?
6.60
